Where these numbers come from: paper PMC4788153

Assay: Chiral plasma pharmacokinetics of MDMA and its phase I and II metabolites after controlled MDMA administration
Format: in vivo, human
Conditions: bupropion+MDMA vs placebo+MDMA, CYP2D6 EMs; unsigned = increase
Where a name gives a salt, the structure may show the parent alone.
Lab note: compare change in Cmax after bupropion pretreatment with -30%, writing YES if less and NO if equal or more.

Examples from the recorded data:
query: Confirm or reject: change in Cmax after bupropion pretreatment of CN[C@H](C)Cc1ccc(OS(=O)(=O)O)c(O)c1 [R-DHMA 4-sulfate] lies strictly below -30%
result: YES

query: API: query returns whether the compound falls strictly under -30% in change in Cmax after bupropion pretreatment. Query: CC(N)Cc1ccc2c(c1)OCO2 (stereo not drawn) [R-MDA, 3,4-methylenedioxyamphetamine]
result: NO

query: Here's an entry: `CN[C@H](C)Cc1ccc2c(c1)OCO2` . Is its change in Cmax after bupropion pretreatment below -30%?
result: NO

query: I wonder whether CC(N)Cc1ccc2c(c1)OCO2 (stereo not drawn) [S-MDA, 3,4-methylenedioxyamphetamine] has change in Cmax after bupropion pretreatment below -30%. Can you tell?
result: NO

query: For this compound, is change in Cmax after bupropion pretreatment lower than -30%? `CN[C@@H](C)Cc1ccc2c(c1)OCO2`
result: NO

Continuing:
query: Field: below-cutoff. Rule: recorded change in Cmax after bupropion pretreatment strictly less than -30%. Subject: CNC(C)Cc1ccc(OC2OC(C(=O)O)C(O)C(O)C2O)c(OC)c1 (stereo not drawn) [S-HMMA glucuronide]
result: YES

query: is_below(change in Cmax after bupropion pretreatment, -30%) for CN[C@@H](C)Cc1ccc(OS(=O)(=O)O)c(O)c1 [S-DHMA 4-sulfate] ?
result: YES

query: Does CN[C@@H](C)Cc1ccc(OS(=O)(=O)O)c(OC)c1 [S-HMMA sulfate] have change in Cmax after bupropion pretreatment strictly under -30%?
result: YES

query: Does this compound meet the criterion change in Cmax after bupropion pretreatment < -30%? CN[C@@H](C)Cc1ccc(O)c(OS(=O)(=O)O)c1 [S-DHMA 3-sulfate]
result: YES

query: Record CN[C@H](C)Cc1ccc(OS(=O)(=O)O)c(OC)c1 [R-HMMA sulfate] : is its change in Cmax after bupropion pretreatment strictly below -30%?
result: YES

query: hey, is change in Cmax after bupropion pretreatment for CN[C@H](C)Cc1ccc(O)c(OS(=O)(=O)O)c1 [R-DHMA 3-sulfate] lower than -30% or not?
result: YES

query: # TODO verify change in Cmax after bupropion pretreatment < -30% strictly for this compound: CNC(C)Cc1ccc(OC2OC(C(=O)O)C(O)C(O)C2O)c(OC)c1 (stereo not drawn) [R-HMMA glucuronide]
result: YES
